Parameter: growth. Scope: all listed entries.
# Tested on: NCI-H23 lung
# Protocol Notes: NCI-60 one-dose screen, 48 h (100 = growth as untreated, 0 = no growth, -100 = all killed)
# Experimental Conditions: 10 µM unless noted
This is part of a sample that, as a whole, favours compounds with a hit. Of some 83,000 tested, about 20% had one in any assay.

[
  {
    "Mol Smiles": "COC(=O)c1oc2c(C(=O)/C=C/c3ccc(OC)cc3)c(OCCN3CCOCC3)ccc2c1C",
    "Target Desc": "NCI-H23 lung",
    "growth (%)": 18.7
  },
  {
    "Mol Smiles": "Cc1c(F)cccc1NC(=O)c1sc2nc3c(cc2c1N)CCCCC3",
    "Target Desc": "NCI-H23 lung",
    "growth (%)": 79.6
  },
  {
    "Mol Smiles": "CCN(CC)CCNC(=O)c1c(C)[nH]c(/C=C2\\C(=O)Nc3cc(NC(=O)NC(=O)c4ccc(OC)cc4F)ccc32)c1C",
    "Target Desc": "NCI-H23 lung",
    "growth (%)": 103
  },
  {
    "Mol Smiles": "C=C1C(=O)O[C@H]2[C@H]1CC/C(COC(=O)c1ccc(C#N)cc1)=C\\CC[C@@]1(C)O[C@@H]21",
    "Target Desc": "NCI-H23 lung",
    "growth (%)": 54.4
  },
  {
    "Mol Smiles": "CC1(C)CC(=O)C2=C(C1)OC1=C(C(=O)CC(C)(C)C1)C2c1ccc(OCc2cn(-c3ccc(F)cc3F)nn2)cc1",
    "Target Desc": "NCI-H23 lung",
    "growth (%)": 102
  },
  {
    "Mol Smiles": "c1cncc(-c2nc3ccccc3[nH]2)c1",
    "Target Desc": "NCI-H23 lung",
    "growth (%)": 84.4
  },
  {
    "Mol Smiles": "CCCCCCCCCCCCCCCC(=O)NS(=O)(=O)OC[C@H]1O[C@@H](n2cnc3c(N)ncnc32)[C@H](O)[C@@H]1O",
    "Target Desc": "NCI-H23 lung",
    "growth (%)": -39.5
  },
  {
    "Mol Smiles": "O=C(O)c1ccc(-n2cc(/C=N/Nc3ccccc3F)c(-c3ccc(O)cc3)n2)cc1",
    "Target Desc": "NCI-H23 lung",
    "growth (%)": 92.3
  },
  {
    "Mol Smiles": "NC(=NCCCOc1ccc(F)cc1)Nc1ccc(Cl)c(Cl)c1",
    "Target Desc": "NCI-H23 lung",
    "growth (%)": 67.9
  }
]

----------
Parameter: growth. Scope: all listed entries.
# System: NCI-H23 lung
# Protocol Notes: NCI-60 one-dose screen, 48 h (100 = growth as untreated, 0 = no growth, -100 = all killed)
# Experimental Conditions: 10 µM unless noted
# Procedure: Growth inhibition of the NCI-H23 human Non-Small Cell Lung tumor cell line is measured as a screen for anti-cancer activity. Cells are grown in 96 well plates and exposed to the test compound for 48 hours. Compounds are tested at a single concentration, which is 10^-5 M for most compounds. The reported endpoint is percent growth (GI% or GIPRCNT), where numbers from 0 - 100% represent growth inhibition, and numbers from -100% - 0 represent cell death. […]
This is part of a sample that, as a whole, favours compounds with a hit. Of some 83,000 tested, about 20% had one in any assay.
Recorded Endpoint: growth (%)

[
  {
    "Mol Smiles": "CO[C@H]1/C=C/C=C/C=C/C[C@H](OC(=O)[C@@H](C)NC(=O)C2CCCCC2)[C@H](C)[C@@H](O)/C(C)=C\\CCC2=CC(=O)C=C(NC(=O)C1)C2=O",
    "Unit Of Measure": "%",
    "Endpoint Value": -14.1
  },
  {
    "Mol Smiles": "C=C1C(=O)O[C@H]2[C@H]1CC/C(COC(=O)OC/C1=C/CC[C@@]3(C)O[C@H]3[C@H]3OC(=O)[C@@H](CN(C)C)[C@@H]3CC1)=C\\CC[C@@]1(C)O[C@@H]21",
    "Unit Of Measure": "%",
    "Endpoint Value": 47.6
  },
  {
    "Mol Smiles": "CCOC(=O)c1noc2c1CCc1c-2cn(Cc2ccc(OC)cc2)c1-c1cc(OC)c(OC)c(OC)c1",
    "Unit Of Measure": "%",
    "Endpoint Value": 42.9
  },
  {
    "Mol Smiles": "Cc1ccc(-c2cn3cc([N+](=O)[O-])ccc3n2)cc1",
    "Unit Of Measure": "%",
    "Endpoint Value": 83.5
  }
]

----------
# Test system: SK-MEL-5 melanoma
# Protocol Notes: NCI-60 one-dose screen, 48 h
# Experimental Conditions: 10 µM unless noted
This is part of a sample that, as a whole, favours compounds with a hit. Of some 83,000 tested, about 20% had one in any assay. Active and inactive are the calls of the source. The calls were made as follows: active = growth percent below 10; inactive = the rest.
Outcomes: y = active, n = inactive

[
  {
    "Compound": "Fc1ccc(/C=N/n2c(-c3cc(Cl)cc(Cl)c3Cl)nn(CNc3ccc(Cl)nn3)c2=S)cc1",
    "Category": "n"
  },
  {
    "Compound": "O=C(O)c1cccc2oc(-c3ccccc3O)nc12",
    "Category": "n"
  },
  {
    "Compound": "CCOc1ccc(NC2=C(Cl)C(=O)c3ccccc3C2=O)cc1",
    "Category": "n"
  },
  {
    "Compound": "COc1ccc(/C=C/C(=O)/C=C(/C=C/c2ccc(OC)c(OC)c2OC)OB(F)F)c(OC)c1OC",
    "Category": "n"
  },
  {
    "Compound": "O=C(c1ccccc1)[C@H]1[C@@H]2CCCN2[C@]2(C(=O)Nc3ccc(F)cc32)[C@]12C(=O)Nc1ccccc12",
    "Category": "n"
  },
  {
    "Compound": "Cc1nccc2c3ccc(OCc4cn(-c5ccc(Br)cc5)nn4)cc3n(CCCc3ccccc3)c12",
    "Category": "n"
  },
  {
    "Compound": "CN(C)CCNc1nc2ccccc2c2c(=O)c3ccccc3sc12",
    "Category": "y"
  },
  {
    "Compound": "FC(F)(F)c1cn(CCN2CCOCC2)c2ncnc(Cl)c12",
    "Category": "n"
  },
  {
    "Compound": "COc1ccc2c(c1)OC(N)=C(C#N)C2c1ccc(F)cc1 (stereo not given)",
    "Category": "n"
  },
  {
    "Compound": "FC(F)(F)c1cccc([Si](F)(c2cccc(C(F)(F)F)c2)c2cccc(C(F)(F)F)c2)c1",
    "Category": "n"
  },
  {
    "Compound": "COc1ccc(C(=O)NC(=O)Nc2ccc3c(c2)NC(=O)/C3=C\\c2[nH]c(C)c(CCC(=O)O)c2C)c(F)c1",
    "Category": "n"
  },
  {
    "Compound": "CO[C@H]1/C=C/C=C/C=C/C[C@H](OC(=O)[C@@H](C)NC(=O)C2CCCCC2)[C@H](C)[C@@H](O)/C(C)=C\\CCC2=CC(=O)C=C(NC(=O)C1)C2=O",
    "Category": "y"
  },
  {
    "Compound": "FC(F)(F)c1cn(CC2CNC2)c2ncnc(Cl)c12",
    "Category": "n"
  },
  {
    "Compound": "Nc1nccc2c1ccn2-c1cccc(NC(=O)c2ccc(N3CCOCC3)c(C(F)(F)F)c2)c1",
    "Category": "y"
  },
  {
    "Compound": "O=C(Nc1ccc(-n2cc(-c3ccncc3)c(-c3ccc(O)c(Cl)c3)n2)cc1)c1ccc(Cl)c(Cl)c1",
    "Category": "y"
  },
  {
    "Compound": "Cc1ccc2oc(=O)cc(C3C(C#N)=C(N)Oc4c3ccc3ccccc43)c2c1 (stereo not given)",
    "Category": "n"
  },
  {
    "Compound": "COc1cc(-c2nc3sc(C)cn3c2/C=C2\\C(=O)Nc3ccccc32)c(Br)c(OC)c1OC",
    "Category": "n"
  },
  {
    "Compound": "Nn1c(SCC(=O)Nc2cc(Cl)c(Cl)cc2Cl)nnc1-c1cc(F)c(Cl)cc1Cl",
    "Category": "n"
  },
  {
    "Compound": "C=C1C(=O)O[C@H]2[C@H]1CC/C(COC(=O)c1ccccc1)=C\\CC[C@@]1(C)O[C@@H]21",
    "Category": "n"
  },
  {
    "Compound": "O=C1C(Cl)=C(Nc2ccccc2)C(=O)C(Cl)=C1Nc1ccccc1",
    "Category": "n"
  },
  {
    "Compound": "CCn1c(C)nc([N+](=O)[O-])c1Sc1nc(N)nc2nc[nH]c12",
    "Category": "n"
  },
  {
    "Compound": "O=C(O)c1ccc(-n2cc(/C=N/Nc3ccc(Cl)cc3)c(-c3ccc(F)c(F)c3)n2)cc1",
    "Category": "n"
  },
  {
    "Compound": "Cc1ccccc1C[P+](c1ccccc1)(c1ccccc1)c1ccccc1",
    "Category": "y"
  },
  {
    "Compound": "Clc1ccc2c(c1)nnn1c3ncccc3c(Br)c21",
    "Category": "n"
  },
  {
    "Compound": "Nc1nc(Nc2ccc(OCc3cccc(F)c3)cc2)c2c(n1)[nH]c1ccc(O)cc12",
    "Category": "y"
  },
  {
    "Compound": "Nn1c(CN2CCN(c3cc4c(cc3F)c(=O)c(C(=O)O)cn4C3CC3)CC2)n[nH]c1=S",
    "Category": "n"
  },
  {
    "Compound": "COC(=O)c1oc2c(C(=O)/C=C/c3ccc(OC)cc3)c(OCCN3CCOCC3)ccc2c1C",
    "Category": "y"
  },
  {
    "Compound": "CCCC(C)(C)COC(=O)c1cccc(N)c1",
    "Category": "n"
  },
  {
    "Compound": "O[C@@H]1CCO[C@H](c2ccc3ccccc3c2)C1",
    "Category": "n"
  },
  {
    "Compound": "C=CCOc1ccc(/C(Cl)=N/N=C(\\Cl)c2cc(OC)c(OC)c(OC)c2)cc1",
    "Category": "n"
  },
  {
    "Compound": "CCN(CC)CCNc1ccc([N+](=O)[O-])c2sc3cc(Cl)ccc3c(=O)c12",
    "Category": "n"
  },
  {
    "Compound": "CCc1cccc(-c2ccccc2)c1",
    "Category": "n"
  },
  {
    "Compound": "COc1ccccc1NC(=O)COc1ccc(/C=C2/Oc3cc4occc4c(OC)c3C2=O)cc1OC",
    "Category": "n"
  },
  {
    "Compound": "CCN(CC)CCC(C(=O)O)(c1ccccc1)c1ccccc1",
    "Category": "n"
  },
  {
    "Compound": "Cc1ccc(/C=C2/C(=O)Nc3cc(Cl)c(-c4csc(N)n4)cc32)cc1",
    "Category": "n"
  },
  {
    "Compound": "O=C(NCCNc1nccc(-c2c(-c3cccc(O)c3)nc3sccn23)n1)Nc1cccc(C(F)(F)F)c1",
    "Category": "n"
  },
  {
    "Compound": "CC(=O)c1cc2c(N)c(C(=O)Nc3cccc(Cl)c3)sc2nc1C",
    "Category": "n"
  },
  {
    "Compound": "c1ccc(OCC[P+](c2ccccc2)(c2ccccc2)c2ccccc2)cc1",
    "Category": "y"
  },
  {
    "Compound": "COc1cc(-c2nc3ccccc3s2)ccc1OCc1nc2n(n1)S(=O)(=O)c1ccccc1N2C",
    "Category": "n"
  },
  {
    "Compound": "COc1cc(/C=C2/Oc3cc4occc4c(OC)c3C2=O)ccc1OCC(=O)Nc1ccncc1",
    "Category": "n"
  }
]
